// data source = the supplement of paper PMC9170038

Tested on: MS2 coat protein
TEST NAME: apparent KD of MS2 coat protein; designed switch direction (-1 OFF switch, 1 ON switch): -1; higher = weaker reporter binding
RUN CONDITIONS: input ligand: FMN 200 uM
Answer each item with its documented apparent KD of MS2 coat protein.
Quick note: give the figure in nM, leave out the unit.

Q. Answer with the recorded apparent KD of MS2 coat protein for the sequence listed here: CGGCGGGUCGCGCUGGUCCACAUGAGGAUCACCCAUGUUCCGGCACGCUGAAGGCACACGCUUUUUGCUCGUCUUAU [Sensor V1 S1] (Eterna round: R97, puzzle: Sensor, turn-off variant 1)
A. 32.2

Q. Answer with the recorded apparent KD of MS2 coat protein for the sequence listed here: ACGGUGGUCCGAGAACAUGAGGAUCACCCAUGUGACAAAACCAAGGAUAUAGACGGACCGCCCGACUAGAAGGUGGAAAGAAAA [Aronlema] (Eterna round: R96, puzzle: Exclusion NG 3)
A. 90.2

Q. Answer with the recorded apparent KD of MS2 coat protein for the sequence listed here: UUCGGCGCAGGAUAUACAGUUUUGUGUUGAAUCGGCGCGAAACAUGAGGAUCACCCAUGUAGAAGGGUGUUGAA [-24.2, -22.3 kcal, A 27%] (Eterna round: R97, puzzle: Exclusion 2)
A. 736

Q. Answer with the recorded apparent KD of MS2 coat protein for the sequence listed here: AAUAAUGAGUAGGAUAUCACUAGCGAUAGCUAGUGAGAAGGGCUCACAUGAGGAUCACCCAUGUGUUCCAAUAA [Mod4 Ex6/6-A4 by Brourd] (Eterna round: R97, puzzle: Exclusion 6)
A. 88.1

Q. Answer with the recorded apparent KD of MS2 coat protein for the sequence listed here: UAUUAGUAAGGAUAUGAGACGUAGGACGCAAGUCCUACGUCUCAGAAGGUACAUGAGGAUCACCCAUGUCUAUU [Mod of Fisker 10 - Jieux - Exclusion 4] (Eterna round: R97, puzzle: Exclusion 4)
A. 21.2

* * *

Test system: MS2 coat protein
TEST NAME: apparent KD of MS2 coat protein, switch OFF state (with FMN for OFF switches, without FMN for ON switches); designed switch direction (-1 OFF switch, 1 ON switch): 1; higher = weaker reporter binding
RUN CONDITIONS: FMN input: 0 or 200 uM; Eterna round: R93 (includes R88 designs)
EXPERIMENTAL ENDPOINT: apparent KD of MS2 coat protein (nM)
Quick note: give the figure in nM, leave out the unit.

Q. Answer with the recorded apparent KD of MS2 coat protein for the sequence listed here: GAAAAACAUGAGGAUCACCCAUGUGAGAUAAACACAGGAUAUGCGAAAAUAAACAAAUAAGCAGAAGGGUGAAAAG [Mat - Same State 1 - Tesla mod - 80]
A. 92.4

Q. Answer with the recorded apparent KD of MS2 coat protein for the sequence listed here: AAAAGACAUGAGGAUCACCCAUGUAAAAACGUAGGAGGAUAUGUCGUGAAAAAAGACUUGGCAGAAGGCCUGUGUC [SS1 - 39]
A. 50.5

Q. Answer with the recorded apparent KD of MS2 coat protein for the sequence listed here: GCUCCAGCUAGCAAGGAUAUGUAGGAUGCUACAUGAGGAUCACCCAUGUGCUGAAAUAAGUCCCGGCAGAAGGUGUGACUGGAGA [Laedtear]
A. 26.9

Q. Answer with the recorded apparent KD of MS2 coat protein for the sequence listed here: AACAAUCUAUCUGAGGAUAUCAUGUCAAAGACAUGAGGAUCACCCAUGUUGCAGGAAACUGCUCAUGAGAAGGCAGAUAGAUUGA [SS2: 1129]
A. 828

Q. Answer with the recorded apparent KD of MS2 coat protein for the sequence listed here: AGAAAUAAAGGAGAGGAUAUCCAAAAGAAAACAUGAGGAUCACCCAUGUAAAAGAAAAUAAAGUGGGAGAAGGCUUCAAAUAAGA [Starry modified V5]
A. 45.2

Q. Answer with the recorded apparent KD of MS2 coat protein for the sequence listed here: AAGAAACAUGAGGAUCACCCAUGUAAAUUCAAGAGAGGAUAUCGUACAUGGAAGAUUCAACGAGAAGGCUCUAGAA [Pariah 3 (MS2 Riboswitches - Same State 1)]
A. 83

Q. Answer with the recorded apparent KD of MS2 coat protein for the sequence listed here: AGAAAACAUGAGGAUCACCCAUGUAGAAAUAUGGGAGGAUAUACAAAGACGAAAGUCAAAGUAGAAGGCCUAAAAG [Mat - Same State 1 - Eli mod - 35]
A. 78.3

Q. Answer with the recorded apparent KD of MS2 coat protein for the sequence listed here: AUAAAUAAAAGCAAGGAUAUCCAAAAGAAAACAUGAGGAUCACCCAUGUAAAAGAAAAUAAAAUGGGAGAAGGUGCAAAAUAAAU [viburnum 8]
A. 27.5

Q. Answer with the recorded apparent KD of MS2 coat protein for the sequence listed here: CGAAGACAUGAGGAUCACCCAUGUGGGAUUAUGGGAGGAUAUACAAAGACGAGAGUCAGAGUAGAAGGCCUAGGAA [salish99-ss1-124(!)]
A. 38.5

Q. Answer with the recorded apparent KD of MS2 coat protein for the sequence listed here: AACAAUCUAUCUGAGGAUAUCAUGUCAAAGACAUGAGGAUCACCCAUGUAGCAGGAAACUGCAUAUGAGAAGGCAGAUAGAUUGA [SS2: 1118]
A. 166

Q. Answer with the recorded apparent KD of MS2 coat protein for the sequence listed here: UAUAAACAUGAGGAUCACCCAUGUAGAAAUAUGGGAGGAUAUACGAAGACGAAAGUCAAAGUAGAAGGCCUAAUAU [Mat - Same State 1 - Eli mod - D113]
A. 49.2

Q. Answer with the recorded apparent KD of MS2 coat protein for the sequence listed here: AGAAAUAAAAGAGAGGAUAUCCAAAAGAAAACAUGAGGAUCACCCAUGUAAAACAAAACAAAAUGGGAGAAGGCUCAAAAUAAGA [Topaz 15]
A. 31.4

* * *

Test system: MS2 coat protein
TEST NAME: apparent KD of MS2 coat protein; higher = weaker reporter binding
RUN CONDITIONS: Eterna round: R107; input ligand: tryptophan 2.4 mM
Answer each item with its documented apparent KD of MS2 coat protein.
Quick note: give the figure in nM, leave out the unit.

Q. Give measured apparent KD of MS2 coat protein for UUGGGUUUGCGAAGGAGCGGGUAUGUUUUCUAGUGGAUCCUAACAUGAGGAUCACCCAUGUCCCAGGUAGGUCGCGCGGGUUUGG [12.V] (MS2 coat protein).
A. 148

Q. Give measured apparent KD of MS2 coat protein for GGGCCCGGGCGCGAGCCCGGGCCCAUUGAUACCAGUGAAGAAGAGCGCCCUUGGCAGCGAAUCCUAACAUGAGGAUCACCCAUGU [5.P] (MS2 coat protein).
A. 38.8

Q. Give measured apparent KD of MS2 coat protein for GGUCGCCAACAUGGGUGGGUGACCCUGGAAGGAGCGAGCGAGAGCUCAGGUAGGUCGCCAGAACAUGAGGAUCACCCAUGUAAUA [(A)''-(M)'-(A)'(Arg1)-(Arg2)-(M1)-(M2)_Design14] (MS2 coat protein).
A. 65.8

Q. Give measured apparent KD of MS2 coat protein for CAUUGAGCAGCUGAUACCAGUGCCUGAACUUACAUGAGGAUCACCCAUGUAUGCCCAAAACACCCUUGGCAGCAGAGGAAGAUCG [theeternabot_sameState_MS2_Theo_B_38] (MS2 coat protein).
A. 14.5

Q. Give measured apparent KD of MS2 coat protein for UAUAUAGAUGGAAGUUCUAUAGAUGCAGAAGGAGCGUAGGAAACUACAGGUAGGUCGCUGAGGUACAUGAGGAUCACCCAUGUAG [SSArg A #20 Slice of Pi] (MS2 coat protein).
A. 22.5

Q. Give measured apparent KD of MS2 coat protein for GGGUGGUAGGCGGCCGCCACUGAUUUUUAUAUAUAUAUGACAUGAGGAUCACCCAUGUAGAUAUGCAGGACCGGGCCUGUUGUUU [aaaN] (MS2 coat protein).
A. 28.3

Q. Give measured apparent KD of MS2 coat protein for AAUAACAUGAGGAUCACCCAUGUAAAAGAUACCAGAUGCAUGAUGAUCCCUUGGCAGCUUAAAACGCGAUUGAUUACAAUCGCGA [Mat - Same State Theophlline A - Mod of Eli - D12] (MS2 coat protein).
A. 27.5

Q. Give measured apparent KD of MS2 coat protein for GGAUAGGACAGAAGGAGCGACAUGAGGAUCACCCAUGUCUACCACGUCGAAAGACGCUCAUGUCAGGUAGGUCGCUGUCCUAUCG [ArgXB 9 #StaticStem #MS2LeftOffAptamer] (MS2 coat protein).
A. 113

Q. Give measured apparent KD of MS2 coat protein for AUACAUGAGGAUCACCCAUGUCCUCGUGAUCGAGGACCGGUACGGCCGCCACUCGGUCCUCGCGAGGAGGAGUCAAAGACUCCAA [Omei Trp A SS A v4] (MS2 coat protein).
A. 53.8

Q. Give measured apparent KD of MS2 coat protein for UUAUGAUGUUCCGAUACCAGCCAUGUAGUUCUAACUUAACAUGAGGAUCACCCAUGUACCGGCCCUUGGCAGCGGAUGUGGAUUA [#22Same State - Theophylline B] (MS2 coat protein).
A. 23.7

Q. Give measured apparent KD of MS2 coat protein for GGACUAACCAGAAGGAGCGACACGCAGAAACUGCAAAUUCCUCCGCACGAGGAUCACCCGUGUCAGGUAGGUCGCUGGUUAGUCG [ArgBX 28] (MS2 coat protein).
A. 22.4
